Recorded growth, one value per entry.
# Test system: K-562 leukemia
# measurement-protocol: NCI-60 one-dose screen, 48 h (100 = growth as untreated, 0 = no growth, -100 = all killed)
# recorded-conditions: 10 µM unless noted
This is part of a sample that, as a whole, favours compounds with a hit. Of some 83,000 tested, about 20% had one in any assay.
# number only, unit % dropped from output

Here is how some compounds turned out for growth.
[
  {
    "substance-smiles": "O=C1C(SCc2ccccc2)=C(Cl)CN1c1ccccc1",
    "endpoint-label": "growth",
    "units-label": "%",
    "measured": 62
  },
  {
    "substance-smiles": "O=C(Nc1cccc(Cl)c1)Nc1nc2cc([N+](=O)[O-])ccc2o1",
    "endpoint-label": "growth",
    "units-label": "%",
    "measured": 37.8
  },
  {
    "substance-smiles": "COc1ccc(C(=NNS(=O)(=O)c2ccc(C)cc2)c2ccccc2)cc1OC",
    "endpoint-label": "growth",
    "units-label": "%",
    "measured": 94.3
  }
]

[in] Field: growth (K-562 leukemia). Entry: `CC1=C(C)C(=O)C(Nc2ccc(C)cc2)=C(Br)C1=O`
[out] -21.3

[in] Field: growth (K-562 leukemia). Entry: `O=C(O)CC1CCN(c2ccc3nnc(Cl)n3n2)CC1`
[out] 105

[in] Field: growth (K-562 leukemia). Entry: `CCOC(=O)c1cnc2c(-c3ccc(Cl)c(Cl)c3)cnn2c1`
[out] 21.7
